Experimental readout: melting point

{"columns": ["Molecule", "Val"],
 "data": [
  ["COC(=O)C(C(C)=O)C(c1cccc([N+](=O)[O-])c1)C(C(C)=O)C(=O)OC (configuration not stated)", "94 to 96 °C"],
  ["CN[C@@H](Cc1ccc(C(F)(F)F)cc1)[C@H](O)c1ccc(F)cc1 (racemic)", "79 to 80 °C"]
]}

Q: Which melting point value is on record for O=C1c2c(-c3ccccc3F)noc2CCC1CCCN1CCN(c2ncccn2)CC1 (configuration not stated) ?
A: 115 to 117 °C

Q: Which melting point value is on record for `FC(F)(F)c1cc(-c2ccnc(Nc3ccc4c(c3)OCCO4)c2)cc(C(F)(F)F)c1` ?
A: 130 to 132 °C

Q: Which melting point value is on record for O=C1CC2(CCCCC2Cc2ccccc2)SCCN1 (configuration not stated) ?
A: 130 to 135 °C

Q: Which melting point value is on record for `CCCCc1nc(Cl)c(CO)n1Cc1ccc2oc(-c3ccccc3-c3nnn[nH]3)c(Br)c2c1` ?
A: 193 to 197 °C

Q: Which melting point value is on record for `N#Cc1nn(-c2c(Cl)cc(C(F)(F)F)cc2Cl)c(N)c1-c1cccs1` ?
A: 206 to 207 °C

Q: Which melting point value is on record for `COc1ccc2c(c1)C(=O)N(CCN(C)CCN1C(=O)c3cc(OC)c(OC)cc3C(C)(C)C1=O)C(=O)C2(C)C` ?
A: 118 to 120 °C

Q: Which melting point value is on record for COc1ccc([C@@H]2SC(c3ccccc3)=C(C)N(CCN(C)C)C(=O)[C@H]2O)cc1 (relative stereo) ?
A: 132 to 133 °C
